molecular target: N-glycosylase/DNA lyase (Homo sapiens) (UniProt O15527); details: Compound Concentration 10.0 uM, Hit No;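 also: OGG1 cleavage of a quenched duplex DNA oligonucleotide, coupled to APE1 for strand incision, read as fluorescence at 594 nm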
Sequence (O15527 whole entry): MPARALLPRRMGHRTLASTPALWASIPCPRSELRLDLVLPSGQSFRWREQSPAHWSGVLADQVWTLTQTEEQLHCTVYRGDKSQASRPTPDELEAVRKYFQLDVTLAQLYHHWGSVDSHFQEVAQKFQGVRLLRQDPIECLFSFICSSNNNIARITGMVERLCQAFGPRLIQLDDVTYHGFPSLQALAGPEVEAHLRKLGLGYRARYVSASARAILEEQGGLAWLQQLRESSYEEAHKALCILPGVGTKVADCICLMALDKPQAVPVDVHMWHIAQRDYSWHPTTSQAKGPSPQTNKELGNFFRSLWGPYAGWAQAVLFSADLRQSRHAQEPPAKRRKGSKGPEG
Description: Inhibition of OGG1 by quantifying inhibition of OGG1-mediated cleavage and dissociation of quenched duplex DNA oligonucleotides, measured as fluorescence at 594 nm. To generate a functional strand incision and increase turn-over this assay is coupled to APE1.
Where a SMILES comes first, the peptide text is derived from it. [ ]: non-standard residue; d: D form. Arg(Me) = CNC(=N)NCCC[C@H](N)C(=O)O; d4Pal = N[C@H](Cc1ccncc1)C(=O)O; azaGly = NNC(=O)O
ASSAY READOUT: inhibition (%)
Answers are plain numbers, in %.

Here is how some compounds turned out for inhibition.
1. O=C(NCCCC1CCCCC1)c1ccc(CNC(=O)c2cnn(-c3ccccc3)c2C(F)(F)F)cc1	4.23
2. COc1cc(N)c(Cl)cc1C(=O)NC1CN2CCC1CC2 (stereo unspecified)	1
3. CCCCC1=NC2(CCCC2)C(=O)N1Cc1ccc(-c2ccccc2-c2nnn[nH]2)cc1	-0.701
4. CNC(=N)NCCC[C@H](NC(=O)[C@H](CC(C)C)NC(=O)NNC(=O)[C@H](Cc1ccccc1)NC(=O)[C@H](CO)NC(=O)[C@H](CC(N)=O)NC(=O)[C@@H](Cc1ccncc1)NC(=O)[C@H](N)Cc1ccc(O)cc1)C(=O)N[C@@H](Cc1ccccc1)C(N)=O (H-[dY][d4Pal]NSF[azaGly]L[Arg(Me)]F-NH2)	-3.16
5. NCCc1cn(S(=O)(=O)c2c(Cl)nc3sccn23)c2ccccc12	16.8
6. CN[C@@H]1Cc2cccc3[nH]c(=O)n(c23)C1	-6.94
7. C[C@H](NC(=O)c1c(C(F)F)nn(C)c1Oc1cccc(C(F)(F)F)c1)c1ccc(C(=O)O)cc1	-5.88
8. NC(=O)NN=Cc1ccc(Oc2ccc(F)cc2)cc1	-9.24

Lab note: each compound below needs its inhibition filled in.
1. O=C(O)c1cc(-c2ccc(C3CCNCC3)cc2)c2ccc(-c3ccc(C(F)(F)F)cc3)cc2c1
2. Cc1nccn1CC1CCc2c(c3ccccc3n2C)C1=O (stereo unspecified)
3. N[C@@H]1c2cccnc2[C@H](OC(=O)N2CCC(n3c(=O)[nH]c4ncccc43)CC2)CC[C@H]1c1cccc(F)c1F

Reply:
1. -4.86
2. -7.85
3. -5.76

Where these numbers come from: ChEMBL document CHEMBL5665443
